# protocol text: BSK_BT_Bcell_Proliferation: Viability Assessment in the BioMAP Diversity Plus: BT Assay for B cell Proliferation (AID 2284227)
# applied conditions: primary human B cells with PBMC
The source made the active and inactive calls. Rule for the calls: active = hit-call score of the fitted dose curve at least 0.9, where 1 is the maximum; inactive = score below 0.9.
Classes used: active, inactive

>>> classification("O=C(C(=O)c1ccccc1)c1ccccc1")
"inactive"
>>> classification("COC(=O)/C=C\\C(=O)OC")
"inactive"
>>> classification("CC[N+](CC)(CC(=O)Nc1c(C)cccc1C)Cc1ccccc1")
"inactive"
>>> classification("Sc1nc2ccccc2s1")
"inactive"
>>> classification("Cc1cccnc1")
"inactive"
>>> classification("CC(C)CC(=O)CC(C)CC(C)C (stereo unspecified)")
"inactive"
>>> classification("CCCCCCCCCCC1CO1 (stereo unspecified)")
"inactive"
>>> classification("CCCCCCCCCCCCCCCCCC[N+](C)(C)C")
"active"
>>> classification("Oc1cccc2ccccc12")
"active"
>>> classification("CN(C)CCC(c1ccc(Cl)cc1)c1ccccn1 (stereo unspecified)")
"inactive"
>>> classification("Cc1cc(-n2nc3ccc(Cl)cc3n2)c(O)c(C(C)(C)C)c1")
"inactive"

###

# study target: THRB (gene 7068) (UniProt P10828)
# Sequence (P10828 whole entry, looked up): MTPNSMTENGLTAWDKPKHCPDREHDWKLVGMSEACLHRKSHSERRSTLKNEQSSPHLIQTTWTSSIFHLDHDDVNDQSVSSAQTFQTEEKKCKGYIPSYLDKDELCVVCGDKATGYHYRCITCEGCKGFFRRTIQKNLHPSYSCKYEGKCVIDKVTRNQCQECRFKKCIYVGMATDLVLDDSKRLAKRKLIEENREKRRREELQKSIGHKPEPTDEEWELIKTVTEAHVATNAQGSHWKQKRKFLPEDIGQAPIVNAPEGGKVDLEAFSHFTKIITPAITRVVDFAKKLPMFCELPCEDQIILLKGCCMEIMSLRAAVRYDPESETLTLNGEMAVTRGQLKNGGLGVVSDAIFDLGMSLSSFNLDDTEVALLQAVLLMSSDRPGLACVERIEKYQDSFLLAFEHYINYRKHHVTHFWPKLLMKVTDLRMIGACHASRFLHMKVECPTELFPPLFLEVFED
# protocol text: TOX21_TRB_BLA_Antagonist_Followup_ratio: Tox21 Thyroid Hormone Receptor beta Antagonism Beta-lactamase (BLA) Follow-Up Assay, Ratio (AID 2283958)
Results filed as inconclusive are left out. Activity calls are given as the source filed them. The calls were made as follows: active = hit-call score of the fitted dose curve at least 0.9, where 1 is the maximum; inconclusive = response in the unintended direction; inactive = score below 0.9.
Classes used: active, inactive

>>> classification("CCc1cc(Cl)c(OC)c(C(=O)NC[C@@H]2CCCN2CC)c1O")
"inactive"
>>> classification("Cc1cc(Nc2ccccc2C(=O)O)ccc1Cl")
"active"
>>> classification("CCCC(=O)O[C@]1(C(=O)CCl)[C@@H](C)C[C@H]2[C@@H]3CCC4=CC(=O)C=C[C@]4(C)[C@@]3(F)C(=O)C[C@@]21C")
"inactive"
>>> classification("O=C1C(=O)c2ncccc2-c2cccnc21")
"inactive"
>>> classification("O=c1[nH]c(=O)n([C@H]2C[C@H](O)[C@@H](CO)O2)cc1F")
"inactive"
>>> classification("COc1ccc2nc(NC(=O)Nc3ccccc3)sc2c1")
"inactive"
>>> classification("C[C@@H]1C[C@H]2[C@@H]3CCC4=CC(=O)C=C[C@]4(C)[C@@]3(Cl)[C@@H](O)C[C@]2(C)[C@@]1(OC(=O)c1ccco1)C(=O)CCl")
"inactive"
>>> classification("CC(C(=O)O)c1ccc(N2Cc3ccccc3C2=O)cc1 (stereo not given)")
"inactive"
>>> classification("C#CCC(Cc1cnc2nc(N)nc(N)c2n1)c1ccc(C(=O)N[C@@H](CCC(=O)O)C(=O)O)cc1 (stereo not given in full)")
"inactive"
>>> classification("O=C(CCCCCCCCC#CI)Oc1ccccc1")
"inactive"

###

# protocol text: ATG_CRE_CIS: Attagene CIS-FACTORIAL HepG2 Assay for human cAMP Responsive Element (CRE) binding protein 3 (AID 2282926)
# applied conditions: HepG2 CRE cis-reporter, Attagene multiplexed mRNA; actives raise or lower the signal
The source made the active and inactive calls. Rule for the calls: active = hit-call score of the fitted dose curve at least 0.9, where 1 is the maximum; inactive = score below 0.9.
Outcome codes: active, inactive

>>> classification("Oc1ccc(Oc2ccccc2)cc1")
"inactive"
>>> classification("CN1CCCC1")
"inactive"
>>> classification("CCC(C)(CCC(C)C)C(=O)O (stereo not drawn)")
"inactive"
>>> classification("CC[N+](CC)(CC(=O)Nc1c(C)cccc1C)Cc1ccccc1")
"inactive"
>>> classification("C=C1CC[C@H]2C[C@@H]1C2(C)C")
"active"
>>> classification("Cc1cc(O)cc(C)c1Cl")
"active"
>>> classification("CCCC[N+]1(C)CCCC1")
"inactive"
>>> classification("CC(C)CC(=O)O")
"inactive"

###

# protocol text: TOX21_p53_BLA_p3_viability: Viability Assessment in the Tox21 HCT-116 p53 Agonism Beta-lactamase Assay, Phase 3 (AID 2283593);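 note: cells exposed to compound for 16 h before reading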
Inconclusive results are not listed. Activity calls are given as the source filed them. The calls were made as follows: active = hit-call score of the fitted dose curve at least 0.9, where 1 is the maximum; inconclusive = response in the unintended direction; inactive = score below 0.9.
Classes used: active, inactive

>>> classification("Cc1ccc(O)c(O)c1")
"active"
>>> classification("CC(C)(CC(=O)O)C(=O)O")
"inactive"
>>> classification("CC1(C)S[C@@H]2[C@H](NC(=O)[C@H](N)c3ccccc3)C(=O)N2[C@H]1C(=O)OCOC(=O)[C@@H]1N2C(=O)C[C@H]2S(=O)(=O)C1(C)C")
"inactive"
>>> classification("CC(=O)Oc1ccc2c(c1)CC[C@@H]1[C@@H]2CC[C@]2(C)[C@@H](O)CC[C@@H]12")
"inactive"
>>> classification("C[C@]12CCC(=O)C=C1[C@@H]1C[C@@H]1[C@H]1[C@@H]3[C@@H]4C[C@@H]4[C@@]4(CCC(=O)O4)[C@@]3(C)CC[C@@H]12")
"inactive"
>>> classification("CCn1cc(C(=O)O)c(=O)c2cc3c(cc21)OCO3")
"inactive"
>>> classification("C[C@H](CN1CCCC1)C(=O)c1ccc(C(F)(F)F)cc1")
"inactive"
>>> classification("CC(C)(O)C#CC(C)(C)O")
"inactive"
>>> classification("O=C(O)C(=O)Nc1cccc(-c2nn[nH]n2)c1")
"inactive"
>>> classification("CCCCCCC(O)CCCCCCCCCCC(=O)OC (stereo unspecified)")
"inactive"
>>> classification("C1C[C@@H]2[C@H]3CC[C@H](C3)[C@@H]2C1")
"inactive"

###

# study target: Cellular tumor antigen p53 (Homo sapiens) (UniProt P04637)
# Sequence (P04637 whole entry, looked up): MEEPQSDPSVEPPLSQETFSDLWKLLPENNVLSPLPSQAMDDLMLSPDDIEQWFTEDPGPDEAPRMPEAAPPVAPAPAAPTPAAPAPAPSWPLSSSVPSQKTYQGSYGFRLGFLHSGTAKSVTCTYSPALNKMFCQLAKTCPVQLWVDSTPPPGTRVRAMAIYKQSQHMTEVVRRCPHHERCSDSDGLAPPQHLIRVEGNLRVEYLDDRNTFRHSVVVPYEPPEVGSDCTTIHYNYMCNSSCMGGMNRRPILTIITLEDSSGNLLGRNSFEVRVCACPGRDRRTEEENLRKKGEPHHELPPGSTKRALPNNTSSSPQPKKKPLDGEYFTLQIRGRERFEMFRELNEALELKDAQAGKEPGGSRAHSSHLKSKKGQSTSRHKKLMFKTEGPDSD
# protocol text: TOX21_p53_BLA_p5_ratio: Tox21 HCT-116 p53 Agonism Beta-lactamase Assay, Ratio, Phase 5 (AID 2283599)
Records with an inconclusive call do not appear. Active and inactive are the calls of the source. How the source made its calls: active means hit-call score of the fitted dose curve at least 0.9, where 1 is the maximum; inconclusive means response in the unintended direction; inactive means score below 0.9. Where a SMILES comes first, the peptide text is derived from it. [ ]: non-standard residue; d: D form. Orn = NCCC[C@H](N)C(=O)O
Outcomes: label 1 (active), label 0 (inactive)

>>> classification("NCCCC[C@H](N)C(=O)O")
"label 0"
>>> classification("O=C1CC2(CCCC2)CC(=O)N1CCNCC1COc2ccccc2O1 (stereo unspecified)")
"label 0"
>>> classification("OCC1(CO)COCOC1")
"label 0"
>>> classification("CNC(=O)c1cc(Oc2ccc(NC(=O)Nc3ccc(Cl)c(C(F)(F)F)c3)cc2)ccn1")
"label 1"
>>> classification("CCN(CC)CCNC(=O)c1ccc(NC(C)=O)cc1")
"label 0"
>>> classification("CCCCCCCCCCCCCCCCCC(=O)[O][Al]")
"label 0"
>>> classification("CCN(O)CC")
"label 0"
>>> classification("O=C(O)c1ccc(-n2nc(-c3ccccc3O)nc2-c2ccccc2O)cc1")
"label 0"
>>> classification("FC(F)(F)C(F)(F)C(F)(F)C(F)(F)C(F)(F)F")
"label 0"
>>> classification("CCCCNCCCC")
"label 0"
>>> classification("CC(=O)N/N=C/c1ccc([N+](=O)[O-])o1")
"label 1"
>>> classification("CC(C)C[C@@H]1NC(=O)[C@H](CCCN)NC(=O)[C@H](C(C)C)NC(=O)[C@@H]2CCCN2C(=O)[C@@H](Cc2ccccc2)NC(=O)[C@H](CC(C)C)NC(=O)[C@H](CCCN)NC(=O)[C@H](C(C)C)NC(=O)[C@@H]2CCCN2C(=O)[C@@H](Cc2ccccc2)NC1=O (cyclo(V[Orn]L[dF]PV[Orn]L[dF]P))")
"label 0"
>>> classification("Cc1cc(C)c(N=Nc2c(O)c(S(=O)(=O)O)cc3cc(S(=O)(=O)O)ccc23)cc1C")
"label 0"
>>> classification("O=Cc1cccc([N+](=O)[O-])c1")
"label 0"
>>> classification("CCOC(=O)COc1ccc(C)cc1")
"label 0"
>>> classification("O=C(O)Cc1cccc(-c2cc(CCCCCCc3ccc(O[C@H]4O[C@H](CO)[C@@H](O)[C@H](O)[C@@H]4O)c(-c4cccc(CC(=O)O)c4)c3)ccc2O[C@H]2O[C@H](CO)[C@@H](O)[C@H](O)[C@@H]2O)c1")
"label 0"
>>> classification("N=C1N=C(N)c2cc3ccccc3cc21")
"label 1"
>>> classification("CN(C)CCc1c[nH]c2ccc(C[C@H]3COC(=O)N3)cc12")
"label 0"
>>> classification("CCCCCN(CCCCC)C(=O)C(CCC(=O)O)NC(=O)c1ccc(Cl)c(Cl)c1 (stereo unspecified)")
"label 0"
>>> classification("Cc1nnc(NS(=O)(=O)c2ccc(N)cc2)s1")
"label 0"
>>> classification("CCN(CC)c1ccc(C(=C2C=CC(=[N+](CC)CC)C=C2)c2ccccc2)cc1")
"label 1"

###

# protocol text: TOX21_p53_BLA_p4_viability: Viability Assessment in the Tox21 HCT-116 p53 Agonism Beta-lactamase Assay, Phase 4 (AID 2283597);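 note: hits lower the luminescence signal meaning cytotoxicity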
Records with an inconclusive call do not appear. The source made the active and inactive calls. How the source made its calls: active means hit-call score of the fitted dose curve at least 0.9, where 1 is the maximum; inconclusive means response in the unintended direction; inactive means score below 0.9.
Possible outcomes: active, inactive

>>> classification("Nc1cccc(S(=O)(=O)O)c1")
"inactive"
>>> classification("O=C(c1ccccc1)c1ccc2n1CCC2C(=O)O (stereo not drawn)")
"inactive"
>>> classification("CC(=O)CCc1ccc(OC(C)=O)cc1")
"inactive"
>>> classification("CC(C)c1ccc2oc3nc(N)c(C(=O)O)cc3c(=O)c2c1")
"inactive"
>>> classification("CCO[Si](C)(CCCOCC1CO1)OCC (stereo not drawn)")
"inactive"
>>> classification("CCC(=O)c1ccc(O)cc1")
"inactive"
>>> classification("NS(=O)(=O)c1cc(C2(O)NC(=O)c3ccccc32)ccc1Cl (stereo not drawn)")
"inactive"
>>> classification("O=C(CCCCCCCCC#CI)Oc1ccccc1")
"inactive"
>>> classification("CC(C)[N+]1(C)[C@@H]2CC[C@H]1CC(OC(=O)C(CO)c1ccccc1)C2 (stereo partly drawn)")
"inactive"
>>> classification("Cc1oc(C)c(C(=O)Nc2ccccc2)c1C")
"inactive"
>>> classification("Cc1c(Cl)cccc1Nc1ccccc1C(=O)O")
"active"
>>> classification("Oc1cc(O)c2c(c1)O[C@H](c1ccc(O)c(O)c1)[C@H](O)C2")
"inactive"
>>> classification("CC(=O)OC(C)C[N+](C)(C)C (stereo not drawn)")
"inactive"
